# TGT: COX-2 (Homo sapiens)
# Sequence (P35354 18-604): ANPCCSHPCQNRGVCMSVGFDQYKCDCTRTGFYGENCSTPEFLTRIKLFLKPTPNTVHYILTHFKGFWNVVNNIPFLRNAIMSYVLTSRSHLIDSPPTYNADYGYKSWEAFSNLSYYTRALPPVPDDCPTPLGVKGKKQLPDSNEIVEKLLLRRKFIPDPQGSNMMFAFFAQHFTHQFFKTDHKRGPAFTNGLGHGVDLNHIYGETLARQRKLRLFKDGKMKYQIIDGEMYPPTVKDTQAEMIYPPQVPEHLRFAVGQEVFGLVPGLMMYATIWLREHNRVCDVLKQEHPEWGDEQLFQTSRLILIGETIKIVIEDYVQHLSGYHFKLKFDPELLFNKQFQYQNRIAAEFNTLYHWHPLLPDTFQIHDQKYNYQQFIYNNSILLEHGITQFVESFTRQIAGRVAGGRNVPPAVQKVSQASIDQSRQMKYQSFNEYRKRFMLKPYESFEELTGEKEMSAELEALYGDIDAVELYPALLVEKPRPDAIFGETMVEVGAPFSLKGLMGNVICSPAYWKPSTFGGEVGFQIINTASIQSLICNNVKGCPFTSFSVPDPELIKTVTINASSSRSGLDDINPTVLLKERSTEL
# RUN_DESCRIPTION: IC50 determinations using purified enzymes (TLC assay), COX-2
# Type: biochemical
# Set-up: made in house; host or cells: Sf9 insect cells
# CONDITION_CONTEXT: Table 3; assayed against purified enzymes; read-out: IC50 COX-2
Reported IC50 values follow for various compounds
PROPERTY_LABEL: IC50 (µM)

- COMPOUND: "COc1ccc2c(c1)c(CC(=O)NCCNS(=O)(=O)c1ccc(/N=N/c3ccc(N(C)C)cc3)cc1)c(C)n2C(=O)c1ccc(Cl)cc1 [Compound 27aa]"
  QUALIFIER_SYMBOL: "="
  MEAS_VALUE: 0.08
- COMPOUND: "CC[N+](CC)=c1ccc2nc3c(cc(NC(=O)CCc4cc(-c5ccc(C)cc5)n(-c5ccc(S(C)(=O)=O)cc5)n4)c4ccccc43)oc-2c1 [Compound 29g]"
  QUALIFIER_SYMBOL: ">"
  MEAS_VALUE: 25
- COMPOUND: "COc1ccc2c(c1)c(CC(=O)NCCCCNC(=O)c1ccc(C3=c4cc5c6c(c4Oc4c3cc3c7c4CCCN7CCC3)CCC[N+]=6CCC5)c(C(=O)[O-])c1)c(C)n2C(=O)c1ccc(Cl)cc1"
  QUALIFIER_SYMBOL: "="
  MEAS_VALUE: 0.7

---

# TGT: ovine COX-1 (Ovis aries)
# Construct: can be purified from ovine seminal vesicles by standard procedures; from tissue; host or cells: ovine seminal vesicles
# Sequence (P05979 25-600): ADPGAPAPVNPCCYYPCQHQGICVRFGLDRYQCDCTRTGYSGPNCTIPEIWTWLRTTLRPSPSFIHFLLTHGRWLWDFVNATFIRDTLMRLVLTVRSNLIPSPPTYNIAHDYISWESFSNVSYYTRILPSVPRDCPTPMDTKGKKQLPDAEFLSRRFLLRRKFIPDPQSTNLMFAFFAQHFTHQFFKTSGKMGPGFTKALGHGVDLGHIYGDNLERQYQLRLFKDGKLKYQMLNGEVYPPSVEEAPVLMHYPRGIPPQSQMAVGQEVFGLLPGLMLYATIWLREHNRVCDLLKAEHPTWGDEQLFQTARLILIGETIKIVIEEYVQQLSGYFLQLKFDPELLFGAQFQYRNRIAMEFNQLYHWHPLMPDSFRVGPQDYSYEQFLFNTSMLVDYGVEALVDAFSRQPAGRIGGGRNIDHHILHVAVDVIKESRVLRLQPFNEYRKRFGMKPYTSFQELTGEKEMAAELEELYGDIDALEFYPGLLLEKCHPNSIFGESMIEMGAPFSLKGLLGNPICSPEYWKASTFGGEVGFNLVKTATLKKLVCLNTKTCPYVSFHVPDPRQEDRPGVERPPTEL
# RUN_DESCRIPTION: IC50 determinations using purified enzymes (TLC assay), COX-1
# Type: biochemical
# CONDITION_CONTEXT: Table 3; assayed against purified enzymes
PROPERTY_LABEL: IC50

- MOLECULE: "COc1ccc2c(c1)c(CC(=O)N1CCNCC1)c(C)n2C(=O)c1ccc(Cl)cc1"
  PROPERTY_LABEL: "IC50"
  MEAS_VALUE: "1.8 µM"
- MOLECULE: "COc1ccc2c(c1)c(CC(=O)N1CCN(C(=O)c3ccc(C4=c5cc6c7c(c5Oc5c4cc4c8c5CCCN8CCC4)CCC[N+]=7CCC6)c(C(=O)[O-])c3)CC1)c(C)n2C(=O)c1ccc(Cl)cc1"
  PROPERTY_LABEL: "IC50"
  MEAS_VALUE: "5.8 µM"
- MOLECULE: "Cc1ccc(-c2cc(CCC(=O)NCCNC(=O)c3ccc(C(=O)[O-])c(C4=c5cc6c7c(c5Oc5c4cc4c8c5CCCN8CCC4)CCC[N+]=7CCC6)c3)nn2-c2ccc(S(N)(=O)=O)cc2)cc1 [Compound 30e]"
  PROPERTY_LABEL: "IC50"
  MEAS_VALUE: "> 25 µM"
- MOLECULE: "CCN1C(=CC=CC=CC2=[N+](CCCCS(=O)(=O)[O-])c3ccc4ccccc4c3C2(C)C)C(C)(C)c2cc(CC(=O)NCCCCNC(=O)Cc3c(C)n(C(=O)c4ccc(Cl)cc4)c4ccc(OC)cc34)ccc21"
  PROPERTY_LABEL: "IC50"
  MEAS_VALUE: "> 25 µM"
- MOLECULE: "COc1ccc2c(c1)c(CC(=O)NCCCNC(=O)c1ccc(C(=O)[O-])c(-c3c4ccc(=[N+](C)C)cc-4oc4cc(N(C)C)ccc34)c1)c(C)n2C(=O)c1ccc(Cl)cc1"
  PROPERTY_LABEL: "IC50"
  MEAS_VALUE: "> 25 µM"
- MOLECULE: "COc1ccc2c(CC(=O)NCCNC(=O)Cc3c(C)n(C(=O)c4ccc(Cl)cc4)c4ccc(OC)cc34)cc(=O)oc2c1 [Compound 27dd]"
  PROPERTY_LABEL: "IC50"
  MEAS_VALUE: "> 25 µM"
- MOLECULE: "COc1ccc2c(c1)c(CC(=O)NCCNC(=O)c1cc3ccccc3oc1=O)c(C)n2C(=O)c1ccc(Cl)cc1 [Compound 27cc]"
  PROPERTY_LABEL: "IC50"
  MEAS_VALUE: "> 25 µM"
- MOLECULE: "COc1ccc2c(c1)c(CC(=O)NCCCCNC(=O)c1ccc(C3=c4cc5c6c(c4Oc4c3cc3c7c4CCCN7CCC3)CCC[N+]=6CCC5)c(C(=O)[O-])c1)c(C)n2C(=O)c1ccc(Cl)cc1"
  PROPERTY_LABEL: "IC50"
  MEAS_VALUE: "> 25 µM"
- MOLECULE: "COc1ccc2c(c1)c(CC(=O)NCCCCNC(=O)c1ccc(C(=O)[O-])c(-c3c4ccc(=[N+](C)C)cc-4oc4cc(N(C)C)ccc34)c1)c(C)n2C(=O)c1ccc(Cl)cc1 [Compound 27xx]"
  PROPERTY_LABEL: "IC50"
  MEAS_VALUE: "> 25 µM"
- MOLECULE: "COc1ccc2c(c1)c(CC(=O)NCCCCNC(=O)c1ccc(-c3c4ccc(=O)cc-4oc4cc(O)ccc34)c(C(=O)O)c1)c(C)n2C(=O)c1ccc(Cl)cc1 [Compound 27pp]"
  PROPERTY_LABEL: "IC50"
  MEAS_VALUE: "> 25 µM"
- MOLECULE: "Cc1ccc(-c2cc(CCC(=O)NCCNC(=O)c3ccc(C(=O)[O-])c(C4=c5cc6c7c(c5Oc5c4cc4c8c5CCCN8CCC4)CCC[N+]=7CCC6)c3)nn2-c2ccc(S(C)(=O)=O)cc2)cc1 [Compound 29h]"
  PROPERTY_LABEL: "IC50"
  MEAS_VALUE: "> 25 µM"
